Entries and their measured pIC50 follow.
target: rCsFBPase (Clonorchis sinensis)
Sequence (G7YVB4 1-346): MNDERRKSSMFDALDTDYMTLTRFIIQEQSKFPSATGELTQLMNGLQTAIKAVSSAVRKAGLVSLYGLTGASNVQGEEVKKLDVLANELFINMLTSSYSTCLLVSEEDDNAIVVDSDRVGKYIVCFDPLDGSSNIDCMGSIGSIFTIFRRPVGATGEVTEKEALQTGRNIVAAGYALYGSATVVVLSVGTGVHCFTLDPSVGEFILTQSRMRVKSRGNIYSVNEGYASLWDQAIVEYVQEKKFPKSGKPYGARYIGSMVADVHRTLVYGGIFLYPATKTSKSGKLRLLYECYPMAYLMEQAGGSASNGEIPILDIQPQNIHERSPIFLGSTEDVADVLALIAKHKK
In simple prose, pIC50 is minus the logarithm base ten of a concentration in moles per litre.

Nc1ncnc2c1ncn2[C@@H]1O[C@H](COP(=O)(O)O)[C@@H](O)[C@H]1O [AMP] | 3.58

Now consider the entry below.
Ask: Report measured pIC50 on rCsFBPase (Clonorchis sinensis); entry: CC(C)Cc1sc(N)nc1-c1ccc(P(=O)(O)O)o1 [MB05032]
Reply: 5.31

Data provenance: paper PMC7217481
